Biological target: Human sodium/glucose co-transporter type 1 (SGLT1) (Homo sapiens (Human), UniProt P13866)
Sequence (P13866 whole entry): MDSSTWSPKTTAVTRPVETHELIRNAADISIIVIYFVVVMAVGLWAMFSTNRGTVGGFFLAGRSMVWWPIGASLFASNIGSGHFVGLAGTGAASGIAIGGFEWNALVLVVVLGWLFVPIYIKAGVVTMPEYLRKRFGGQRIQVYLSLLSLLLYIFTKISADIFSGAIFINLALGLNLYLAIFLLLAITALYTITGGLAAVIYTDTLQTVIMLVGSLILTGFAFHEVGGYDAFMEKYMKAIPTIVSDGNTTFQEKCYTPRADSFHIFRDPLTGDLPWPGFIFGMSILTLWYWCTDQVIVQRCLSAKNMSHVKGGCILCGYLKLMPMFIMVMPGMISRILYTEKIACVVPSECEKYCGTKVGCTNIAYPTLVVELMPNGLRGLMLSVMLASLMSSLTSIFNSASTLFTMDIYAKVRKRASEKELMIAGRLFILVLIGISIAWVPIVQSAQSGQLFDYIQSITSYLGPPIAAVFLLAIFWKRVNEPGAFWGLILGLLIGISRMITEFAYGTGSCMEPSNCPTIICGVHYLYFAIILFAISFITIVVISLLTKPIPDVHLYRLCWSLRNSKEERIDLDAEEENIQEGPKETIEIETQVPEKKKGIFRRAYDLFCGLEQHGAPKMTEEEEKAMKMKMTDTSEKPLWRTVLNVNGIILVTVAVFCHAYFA
Experiment: In vitro human SGLT1 inhibition assay (14C-AMG uptake)
Details: HEK293 cells expressing human HA-SGLT1, 14C-AMG uptake
Below, each entry is listed alongside its reported IC50.

Worked examples follow.
[[record]]
smiles_code = "CS[C@H]1O[C@@H](c2ccc(Cl)c(Cc3ccc(OCCCC(=O)NC(C)(C)CO)cc3)c2)[C@H](O)[C@@H](O)[C@@H]1O"
measured_on = "Human sodium/glucose co-transporter type 1 (SGLT1) (Homo sapiens (Human), UniProt P13866)"
data_value = "< 10 nM"

[[record]]
smiles_code = "CS[C@H]1O[C@@H](c2ccc(C)c(Cc3ccc(OCCCC(=O)NCCO)cc3)c2)[C@H](O)[C@@H](O)[C@@H]1O"
measured_on = "Human sodium/glucose co-transporter type 1 (SGLT1) (Homo sapiens (Human), UniProt P13866)"
data_value = "< 100 nM"

[[record]]
smiles_code = "CS[C@H]1O[C@@H](c2ccc(C)c(Cc3ccc(CCCCNC(CO)(CO)CO)cc3)c2)[C@H](O)[C@@H](O)[C@@H]1O"
measured_on = "Human sodium/glucose co-transporter type 1 (SGLT1) (Homo sapiens (Human), UniProt P13866)"
data_value = "< 10 nM"

[[record]]
smiles_code = "CS[C@H]1O[C@@H](c2ccc(Cl)c(Cc3ccc(OCCN)cc3)c2)[C@H](O)[C@@H](O)[C@@H]1O"
measured_on = "Human sodium/glucose co-transporter type 1 (SGLT1) (Homo sapiens (Human), UniProt P13866)"
data_value = "< 100 nM"

[[record]]
smiles_code = "CS[C@H]1O[C@@H](c2ccc(Cl)c(Cc3ccc(OCCCC(=O)NCC(C)(C)C(N)=O)cc3)c2)[C@H](O)[C@@H](O)[C@@H]1O"
measured_on = "Human sodium/glucose co-transporter type 1 (SGLT1) (Homo sapiens (Human), UniProt P13866)"
data_value = "< 100 nM"


Next item in the queue.
IC50 in this record for CS[C@H]1O[C@@H](c2ccc(C)c(Cc3ccc(OCC(N)=O)cc3)c2)[C@H](O)[C@@H](O)[C@@H]1O : < 100 nM

---

Below, each entry is listed alongside its reported IC50.
Biological target: Human sodium/glucose co-transporter type 1 (SGLT1) (Homo sapiens (Human))
Assay: In vitro human SGLT1 inhibition assay (14C-AMG uptake)
Conditions: HEK293 cells expressing human HA-SGLT1, 14C-AMG uptake

Worked examples follow.
[[record]]
compound = "CS[C@H]1OC(c2ccc(C)c(Cc3ccc(OCCCNC(C)(CO)CO)cc3)c2)[C@H](O)[C@@H](O)[C@@H]1O (stereo partly drawn)"
data_value = "< 10 nM"

[[record]]
compound = "CCNC(=O)CCCOc1ccc(Cc2cc([C@@H]3O[C@H](SC)[C@@H](O)[C@H](O)[C@H]3O)ccc2C)cc1"
data_value = "< 10 nM"


IC50 for Human sodium/glucose co-transporter type 1 (SGLT1) (Homo sapiens (Human)) with input CS[C@H]1O[C@@H](c2ccc(C)c(Cc3ccc(CCCC(=O)NC(C)(C)C(=O)NCCN(C)C)cc3)c2)[C@H](O)[C@@H](O)[C@@H]1O equals < 10 nM

IC50 for Human sodium/glucose co-transporter type 1 (SGLT1) (Homo sapiens (Human)) with input CS[C@H]1OC(c2ccc(C)c(Cc3ccc(OCCNC(=O)NCC(C)(C)C(N)=O)cc3)c2)[C@H](O)[C@@H](O)[C@@H]1O (stereo partly drawn) equals < 10 nM

IC50 for Human sodium/glucose co-transporter type 1 (SGLT1) (Homo sapiens (Human)) with input CS[C@H]1O[C@@H](c2ccc(C)c(Cc3ccc(CCCC(=O)NCC(C)(C)C(=O)O)cc3)c2)[C@H](O)[C@@H](O)[C@@H]1O equals < 100 nM

IC50 for Human sodium/glucose co-transporter type 1 (SGLT1) (Homo sapiens (Human)) with input CS[C@H]1O[C@@H](c2ccc(C)c(Cc3ccc(/C=C/CCC(=O)NC(CO)(CO)CO)cc3)c2)[C@H](O)[C@@H](O)[C@@H]1O equals < 10 nM
